Test system: P388
assay_overview: Cytotoxicity against mouse P388 cells
Type: functional, cell-based
observation_type: IC50 (µg/mL)
One number for each entry, in µg/mL.

// known answers, use as guide
molecule	measurement_target	reported_measurement
COC(/C=C/C(C)=C/C=C/C(C)=C1\C(=O)C[C@H]2[C@@]3(C)CC[C@@H](O)[C@](C)(C(=O)[O-])[C@@H]3CC[C@]12C)C(C)(C)O.[Na+] (some centres undefined)	P388	0.1
COC(/C=C/C(C)=C/C=C/C(C)=C1\C(=O)C[C@H]2[C@@]3(C)CC[C@@H](OC(C)=O)[C@](C)(C(=O)[O-])[C@@H]3CC[C@]12C)C(C)(C)O.[Na+] (some centres undefined)	P388	0.46
COC(/C=C/C(C)(C)O)/C(C)=C/C=C/C(C)=C1\C(=O)C[C@H]2[C@@]3(C)CC[C@@H](OC(C)=O)[C@](C)(C(=O)[O-])[C@@H]3CC[C@]12C.[Na+] (some centres undefined)	P388	0.1

I have this molecule here, CC(=O)O[C@@H]1CC[C@@]2(C)[C@@H](CC[C@]3(C)/C(=C(\C)C(=O)/C=C/C(C)=C/C=C/C(C)(C)O)C(=O)C[C@@H]23)[C@@]1(C)C(=O)[O-].[Na+] , and I need its recorded IC50.
0.1
